- SUBJECT OF TEST: T1, RBFOX1 RRM (Homo sapiens, UniProt Q9NWB1 109-208)
- T1 sequence: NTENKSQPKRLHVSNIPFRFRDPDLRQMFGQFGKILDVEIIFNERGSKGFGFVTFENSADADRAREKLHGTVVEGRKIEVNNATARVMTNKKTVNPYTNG
- PROTOCOL TEXT: EMSA; HiTS-Eq, 1 nM pool, 10 min; buffer printed only for the single-RNA assays: 10 mM Tris pH 7.5, 150 mM NaCl, 3.4 mM EDTA, 0.001% NP-40, 30 C
- RUN PARAMETERS: tags: His6 N-terminal (pET28a); label: 5' 32P
Over roughly 16,000 sequences, “ka relative to ugcaugu” has its median near 0.0091; the highest 2% begin near 0.032. For the sample, the highest values were picked, then their nearest neighbours and some sequences at random.
Record form. Attribute: binding signal. Fill in for each entry.

Input GCGGAGC (DNA:RNA) RNA: GGGAGACCGGAAUUCAGAUUGUCCGCGGAGCUUAAAUCCCGUCGUAGCCACCA DNA 1: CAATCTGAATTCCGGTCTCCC DNA 2: TGGTGGCTACGACGGGATT . Output binding signal: 0.0117 KA relative to UGCAUGU

GGCGCUG (DNA:RNA) RNA: GGGAGACCGGAAUUCAGAUUGUCCGGCGCUGUUAAAUCCCGUCGUAGCCACCA DNA 1: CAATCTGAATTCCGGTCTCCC DNA 2: TGGTGGCTACGACGGGATT has a reported binding signal of 0.0174 KA relative to UGCAUGU

Notebook: AUAGGCC (DNA:RNA) RNA: GGGAGACCGGAAUUCAGAUUGUCCAUAGGCCUUAAAUCCCGUCGUAGCCACCA DNA 1: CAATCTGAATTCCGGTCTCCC DNA 2: TGGTGGCTACGACGGGATT , binding signal read as 0.0113 KA relative to UGCAUGU

Value sought for every listed binder: binding signal.
1. UGGGACC (DNA:RNA) RNA: GGGAGACCGGAAUUCAGAUUGUCCUGGGACCUUAAAUCCCGUCGUAGCCACCA DNA 1: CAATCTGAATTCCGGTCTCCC DNA 2: TGGTGGCTACGACGGGATT
2. GGGCUGG (DNA:RNA) RNA: GGGAGACCGGAAUUCAGAUUGUCCGGGCUGGUUAAAUCCCGUCGUAGCCACCA DNA 1: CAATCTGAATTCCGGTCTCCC DNA 2: TGGTGGCTACGACGGGATT

Solution:
1: 0.0142 KA relative to UGCAUGU; 2: 0.0301 KA relative to UGCAUGU
